Measured viability, T/C values are reported for all entries that follow.
- Tested on: A375 multi-cell spheroids with HUVEC/MSC, viability
- PROTOCOL NOTES: Anticancer human tumor A375 cell line growth inhibition [GQUAD];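 further: spheroids exposed to compounds for seven days before readout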
- SETTINGS: second compound 0.316 µM; first compound 0.1 µM; hits give low values
Write the number in % without appending the unit.

Cc1cccc(N(C)C(=O)C2C(O)CCN2c2nc(C)cc(C(F)(F)F)c2C#N)c1 (stereo unspecified) + CN(C)c1ccc(Nc2c3ccc(NC(=O)CCN4CCCC4)cc3nc3cc(NC(=O)CCN4CCCC4)ccc23)cc1    101
CC1COCCN1c1cc(C2(S(C)(=N)=O)CC2)nc(-c2ccnc3[nH]ccc23)n1 (stereo unspecified) + Cc1[nH]c2ccc(F)cc2c1-c1nc2c3cccnc3c3ncccc3c2[nH]1    105

Lab note: measured viability, T/C of O=C(NO)c1cnc(N2CCN(S(=O)(=O)c3ccc4ccccc4c3)CC2)nc1 + Cc1[nH]c2ccc(F)cc2c1-c1nc2c3cccnc3c3ncccc3c2[nH]1 was 112

Lab note: measured viability, T/C of O=C(c1cc(Cc2n[nH]c(=O)c3ccccc23)ccc1F)N1CCN(C(=O)C2CC2)CC1 + CN(C)c1ccc(Nc2c3ccc(NC(=O)CCN4CCCC4)cc3nc3cc(NC(=O)CCN4CCCC4)ccc23)cc1 was 101

Lab note: measured viability, T/C of CC(C)n1c(=O)n(C)c2cnc3cc(F)c(-c4ccc(OCCCN5CCCCC5)nc4)cc3c21 + Cc1cnc(CNC(=O)c2c(=O)c3ccc(N4CCCN(C)CC4)nc3n3c2sc2ccccc23)cn1 was 53.1

Lab note: measured viability, T/C of C=CC(=O)N1CCN(c2nc(=O)n(-c3c(C)ccnc3C(C)C)c3nc(-c4c(O)cccc4F)c(F)cc23)C(C)C1 (stereo unspecified) + Cc1[nH]c2ccc(F)cc2c1-c1nc2c3cccnc3c3ncccc3c2[nH]1 was 102

Lab note: measured viability, T/C of COc1cccc2c1C(=O)c1c(O)c3c(c(O)c1C2=O)CC(O)(C(=O)CO)CC3OC1CC(N)C(O)C(C)O1 (stereo unspecified) + Cc1[nH]c2ccc(F)cc2c1-c1nc2c3cccnc3c3ncccc3c2[nH]1 was 89.2

Lab note: measured viability, T/C of C=CC(=O)N1CCN(c2nc(=O)n(-c3c(C)ccnc3C(C)C)c3nc(-c4c(O)cccc4F)c(F)cc23)C(C)C1 (stereo unspecified) + Cc1cnc(CNC(=O)c2c(=O)c3ccc(N4CCCN(C)CC4)nc3n3c2sc2ccccc23)cn1 was 56.6

Lab note: measured viability, T/C of O=C(c1cc(Cc2n[nH]c(=O)c3ccccc23)ccc1F)N1CCN(C(=O)C2CC2)CC1 + Cc1cnc(CNC(=O)c2c(=O)c3ccc(N4CCCN(C)CC4)nc3n3c2sc2ccccc23)cn1 was 57.8

Lab note: measured viability, T/C of COc1ncnc(C2CC2)c1-c1ncc2cnn(Cc3ccc(-c4nc(C(F)(F)F)cn4C(C)C)cc3)c2n1 + CN(C)c1ccc(Nc2c3ccc(NC(=O)CCN4CCCC4)cc3nc3cc(NC(=O)CCN4CCCC4)ccc23)cc1 was 110

Lab note: measured viability, T/C of Nc1ccn(C2OC(CO)C(O)C2(F)F)c(=O)n1 (stereo unspecified) + CN(C)c1ccc(Nc2c3ccc(NC(=O)CCN4CCCC4)cc3nc3cc(NC(=O)CCN4CCCC4)ccc23)cc1 was 5.96

---

Measured viability, T/C values are reported for all entries that follow.
- Tested on: A375 multi-cell spheroids with HUVEC/MSC, viability
- PROTOCOL NOTES: Anticancer human tumor A375 cell line growth inhibition [GQUAD];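 further: spheroids exposed to compounds for seven days before readout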
- SETTINGS: second compound 1 µM; first compound 1 µM; hits give low values
Write the number in % without appending the unit.

// worked examples, viability, T/C included
C#Cc1c(F)ccc2cc(O)cc(-c3ncc4c(N5CC6CCC(C5)N6)nc(OCC56CCCN5CC(F)C6)nc4c3F)c12 (stereo not drawn) + CN(C)c1ccc(Nc2c3ccc(NC(=O)CCN4CCCC4)cc3nc3cc(NC(=O)CCN4CCCC4)ccc23)cc1    109
CC1COCCN1c1cc(C2(O)CC3CCC(C2)O3)c2cnn(-c3ccn[nH]3)c2n1 (stereo not drawn) + CN(C)c1ccc(Nc2c3ccc(NC(=O)CCN4CCCC4)cc3nc3cc(NC(=O)CCN4CCCC4)ccc23)cc1    16.3
CC(C)n1c(=O)n(C)c2cnc3cc(F)c(-c4ccc(OCCCN5CCCCC5)nc4)cc3c21 + Cc1[nH]c2ccc(F)cc2c1-c1nc2c3cccnc3c3ncccc3c2[nH]1    96
CCCS(=O)(=O)Nc1ccc(F)c(C(=O)c2c[nH]c3ncc(-c4ccc(Cl)cc4)cc23)c1F + Cc1[nH]c2ccc(F)cc2c1-c1nc2c3cccnc3c3ncccc3c2[nH]1    5.57
O=C(NO)c1cnc(N2CCN(S(=O)(=O)c3ccc4ccccc4c3)CC2)nc1 + CN(C)c1ccc(Nc2c3ccc(NC(=O)CCN4CCCC4)cc3nc3cc(NC(=O)CCN4CCCC4)ccc23)cc1    0.26

Lab note: measured viability, T/C of CC1COCCN1c1cc(C2(O)CC3CCC(C2)O3)c2cnn(-c3ccn[nH]3)c2n1 (stereo not drawn) + Cc1[nH]c2ccc(F)cc2c1-c1nc2c3cccnc3c3ncccc3c2[nH]1 was 16.6

Lab note: measured viability, T/C of C=CCn1c(=O)c2cnc(Nc3ccc(N4CCN(C)CC4)cc3)nc2n1-c1cccc(C(C)(C)O)n1 + Cc1[nH]c2ccc(F)cc2c1-c1nc2c3cccnc3c3ncccc3c2[nH]1 was 36.8

Lab note: measured viability, T/C of CC(C)(O)C1CCC(Nc2ccc3ncc(-c4cccc(C(F)(F)F)c4)n3n2)CC1 (stereo not drawn) + CN(C)c1ccc(Nc2c3ccc(NC(=O)CCN4CCCC4)cc3nc3cc(NC(=O)CCN4CCCC4)ccc23)cc1 was 95.1

---

Measured viability, T/C values are reported for all entries that follow.
- Test system: A375 multi-cell spheroids with HUVEC/MSC, viability
- PROTOCOL NOTES: Anticancer human tumor A375 cell line growth inhibition [GQUAD];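 further: spheroids exposed to compounds for seven days before readout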
- SETTINGS: second compound 0.316 µM; first compound 0.1 µM; hits give low values
- Text: DNA G-quadruplex Stabilizer Agents in Combinations in Complex Spheroids A high-throughput screen of multi-cell type tumor spheroids was designed to identify active combinations of DNA G-quadruplex stabilizer agents and targeted small molecules. […] Compounds. […] If the clinical Cmax for an agent had not been determined, the highest concentration tested was 10 microM. […]
Write the number in % without appending the unit.

// worked examples, viability, T/C included
C=CCn1c(=O)c2cnc(Nc3ccc(N4CCN(C)CC4)cc3)nc2n1-c1cccc(C(C)(C)O)n1 + Cc1[nH]c2ccc(F)cc2c1-c1nc2c3cccnc3c3ncccc3c2[nH]1    103
CC1COCCN1c1cc(-c2ccnn2C)c2ccnc(-c3ccn[nH]3)c2n1 (stereo not given) + CN(C)c1ccc(Nc2c3ccc(NC(=O)CCN4CCCC4)cc3nc3cc(NC(=O)CCN4CCCC4)ccc23)cc1    82.6

Lab note: measured viability, T/C of O=C(NO)c1cnc(N2CCN(S(=O)(=O)c3ccc4ccccc4c3)CC2)nc1 + CN(C)c1ccc(Nc2c3ccc(NC(=O)CCN4CCCC4)cc3nc3cc(NC(=O)CCN4CCCC4)ccc23)cc1 was 103

Lab note: measured viability, T/C of C#Cc1c(F)ccc2cc(O)cc(-c3ncc4c(N5CC6CCC(C5)N6)nc(OCC56CCCN5CC(F)C6)nc4c3F)c12 (stereo not given) + CN(C)c1ccc(Nc2c3ccc(NC(=O)CCN4CCCC4)cc3nc3cc(NC(=O)CCN4CCCC4)ccc23)cc1 was 98.4

Lab note: measured viability, T/C of O=c1[nH]cc(F)c(=O)[nH]1 + Cc1cnc(CNC(=O)c2c(=O)c3ccc(N4CCCN(C)CC4)nc3n3c2sc2ccccc23)cn1 was 51.4

---

- System: A375 multi-cell spheroids with HUVEC/MSC, viability
- PROTOCOL NOTES: Anticancer human tumor A375 cell line growth inhibition [GQUAD];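 further: spheroids exposed to compounds for seven days before readout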
- SETTINGS: second compound 0.1 µM; first compound 0.1 µM; hits give low values
PROPERTY LABEL: viability, T/C (%)
Write the number in % without appending the unit.

// worked examples, viability, T/C included
O=C(c1cc(Cc2n[nH]c(=O)c3ccccc23)ccc1F)N1CCN(C(=O)C2CC2)CC1 + CN(C)c1ccc(Nc2c3ccc(NC(=O)CCN4CCCC4)cc3nc3cc(NC(=O)CCN4CCCC4)ccc23)cc1    102
O=C(c1cc(Cc2n[nH]c(=O)c3ccccc23)ccc1F)N1CCN(C(=O)C2CC2)CC1 + Cc1[nH]c2ccc(F)cc2c1-c1nc2c3cccnc3c3ncccc3c2[nH]1    97.4
CC(C)n1c(=O)n(C)c2cnc3cc(F)c(-c4ccc(OCCCN5CCCCC5)nc4)cc3c21 + CN(C)c1ccc(Nc2c3ccc(NC(=O)CCN4CCCC4)cc3nc3cc(NC(=O)CCN4CCCC4)ccc23)cc1    106
COc1ccc([C@@H](O)c2cc(-c3ncnc4cc(N5CCOCC5)ccc34)c(F)cc2Cl)nn1 + Cc1[nH]c2ccc(F)cc2c1-c1nc2c3cccnc3c3ncccc3c2[nH]1    102
O=C(c1cc(Cc2n[nH]c(=O)c3ccccc23)ccc1F)N1CCN(C(=O)C2CC2)CC1 + Cc1cnc(CNC(=O)c2c(=O)c3ccc(N4CCCN(C)CC4)nc3n3c2sc2ccccc23)cn1    71.1

Lab note: measured viability, T/C of CC(=O)O[C@H]1C(=O)[C@@]2(C)[C@H]([C@H](OC(=O)c3ccccc3)[C@]3(O)C[C@H](OC(=O)[C@H](O)[C@@H](NC(=O)c4ccccc4)c4ccccc4)C(C)=C1C3(C)C)[C@]1(OC(C)=O)CO[C@@H]1C[C@@H]2O + CN(C)c1ccc(Nc2c3ccc(NC(=O)CCN4CCCC4)cc3nc3cc(NC(=O)CCN4CCCC4)ccc23)cc1 was 23

Lab note: measured viability, T/C of Nc1ccn(C2OC(CO)C(O)C2(F)F)c(=O)n1 (stereo unspecified) + Cc1cnc(CNC(=O)c2c(=O)c3ccc(N4CCCN(C)CC4)nc3n3c2sc2ccccc23)cn1 was 10.8
